Origin of values: the nanobody polyreactivity screen of Harvey et al. (2022)

Assay: yeast display, Sf9 membrane polyspecificity reagent, FACS + sequencing; frameworks hold sequencing errors
measuredProperty: polyreactivity (PSR sort gate)

[
  {
    "monomerSequence": "QVQIVESGGALVQAGGSLSLSCAASRSTFYRNDMGWYRQAPGKEREFVAAISFRGGGTYADSVKGRFTISRDNAKITVYLQMNSLKPEDTAVYYCAADHLSYRRRYEYWGQGTQVTVSS",
    "result": "low polyreactivity"
  },
  {
    "monomerSequence": "QFQLVESGGGLVQAGGSLRLSCADSGSIFSGYAMGRYRQEPGKDSELVASITRGGSTYYADSVKGRFTISLDNAKNNVYLQINSLKQEDTAVYYCARYGYKNRPLGMDYWGQGTQVTVSS",
    "result": "low polyreactivity"
  },
  {
    "monomerSequence": "QVQLVESGGGLVQAGGSLRLSCAASGSTFVYNAMGWYRQAPGKERELVAGISSSGGRTYYADSVKGRFTISRDNAKNTVYLQMNSLKPEDTAVYYCATGYRQGEYDYWGQGTQVTVSS",
    "result": "low polyreactivity"
  },
  {
    "monomerSequence": "QVQLVETGGGLVHAGGSLRLSCAASGSTISLYARGWYRQAPVKERELVASITWGGGSTYADSVKGRFTISRDNAKNTVYLQLNRLKPEDTAVYYCARKYRYRVLYDFAYDHWGQGTQVTVSS",
    "result": "low polyreactivity"
  },
  {
    "monomerSequence": "QVQLVESGGGLVQAGGSLRLSCAASGRIFYWNTMGWYRQAPGKEREFVAAILSRGDTTYYADSVKGRFTISRDNAKNTVYLQMNSLKPEDTAVYYCAARPVRYHYVPSMYYWGQGTQVTVSS",
    "result": "high polyreactivity"
  },
  {
    "monomerSequence": "QVQLVESGGGLVQAGGSLRLSCAASGSTFIVKAMGWYRHAPGKERELVAAITEDGDTTYYADSVKGRFTISRDNAKKTVYLQMNSLKPEDTAVYYCAAETYYLDDYWGQGTQVTVSS",
    "result": "high polyreactivity"
  },
  {
    "monomerSequence": "QVQLVESGGGLVQAGGSLRLSCAASGIIFDGYAMGWYRQAPGKEREFVAAITSGGGSTSYADSVKGRFTISRDNAKNTVYLQMNSLKPEDTAVYSCAARSNRFYVRQRYGYWGQGTQVTVSS",
    "result": "high polyreactivity"
  },
  {
    "monomerSequence": "QVQLVESGGGLVQAGGSLRLSCAASGSTFAPNALGWSRQAPGKERELVAAIRTNTVSTYYADSVKGRFTISRDNAKNTVYLQMNSLKPEDTEVYYCAAVFSGFYYAYDYWGQGTQVTVSS",
    "result": "high polyreactivity"
  },
  {
    "monomerSequence": "QVQLVESGGGLVQAGGSLRLSCAASGRIFQFYTMGWYRQAPGKERELVASISSAGSTNYADSVKGRFTISRDNAKNTVYLQMNSLKPEDTAVYYCRYTYYWMGYWGQGTQVTVSS",
    "result": "high polyreactivity"
  },
  {
    "monomerSequence": "QVQLVESGGGLVQAGCSLRLSFAASGFSFRRYALGSYIPAPGKERELVAAITNSGGSTYYADSVKGRFTISRDNAKNSVYLQLNSLKPEDTAVYYCVALRSACAYDYWGQGTQVTVSS",
    "result": "high polyreactivity"
  },
  {
    "monomerSequence": "QVQLVESGGGLVQARGSLRLSCAASGSTFRINAMGWYRQAPGKERELVAAITSGGSTKYADSVKGRFTISRDNAKNTVYLQMYILKPADTAVYYCNKQGYPFRYFAWYPGYNYWGQGTQVTVSS",
    "result": "low polyreactivity"
  }
]
